Target: CDK2/CycE (Homo sapiens, UniProt P24941)
Construct: GST
Assay: CDK2/CycE kinase assay
Details: histone IIIS substrate, 0.5 μm ATP, 15 minutes at 22° C.
Rule: measured IC50 below 1 µM gets condition met; anything equal to or greater than 1 µM gets condition not met.

// known answers, use as guide
>  <COMPOUND>
Nc1nc(Nc2cnc3ccccc3c2)nn1-c1ccccn1 [Example 10]

>  <STUDY SYSTEM>
CDK2/CycE (Homo sapiens, UniProt P24941)

>  <ANSWER LABEL>
condition met

$$$$
>  <COMPOUND>
Nc1nc(Nc2cccnc2)nn1-c1ccc2ccccc2c1 [Example 5]

>  <STUDY SYSTEM>
CDK2/CycE (Homo sapiens, UniProt P24941)

>  <ANSWER LABEL>
condition met

$$$$
>  <COMPOUND>
Nc1nc(Nc2cccnc2)nn1-c1ccc(C(F)(F)F)cn1 [Example 6]

>  <STUDY SYSTEM>
CDK2/CycE (Homo sapiens, UniProt P24941)

>  <ANSWER LABEL>
condition not met

$$$$
>  <COMPOUND>
Nc1nc(Nc2cncc(Br)c2)nn1-c1ccccn1 [Example 15]

>  <STUDY SYSTEM>
CDK2/CycE (Homo sapiens, UniProt P24941)

>  <ANSWER LABEL>
condition met

$$$$

Prompt: In the record for Nc1nc(Nc2cccnc2)nn1-c1nccc2ccccc12 [Example 13] , is IC50 less than 1 µM?
Response: condition met

Prompt: In the record for Nc1nc(Nc2cncc3ccccc23)nn1-c1ccccn1 [Example 16] , is IC50 less than 1 µM?
Response: condition not met

Prompt: In the record for Cc1cc(C(F)(F)F)cc(-n2nc(Nc3cccnc3)nc2N)n1 [Example 3] , is IC50 less than 1 µM?
Response: condition not met

Prompt: In the record for Nc1nc(Nc2cccnc2)nn1-c1ncccc1C(F)(F)F [Example 4] , is IC50 less than 1 µM?
Response: condition not met

Prompt: In the record for Nc1nc(Nc2cnc3ncccc3c2)nn1-c1ccccn1 [Example 17] , is IC50 less than 1 µM?
Response: condition met

---

Below are molecules with their IC50 as measured on Tie2 (Homo sapiens).
Sequence (Q02763 23-1124, species assumed): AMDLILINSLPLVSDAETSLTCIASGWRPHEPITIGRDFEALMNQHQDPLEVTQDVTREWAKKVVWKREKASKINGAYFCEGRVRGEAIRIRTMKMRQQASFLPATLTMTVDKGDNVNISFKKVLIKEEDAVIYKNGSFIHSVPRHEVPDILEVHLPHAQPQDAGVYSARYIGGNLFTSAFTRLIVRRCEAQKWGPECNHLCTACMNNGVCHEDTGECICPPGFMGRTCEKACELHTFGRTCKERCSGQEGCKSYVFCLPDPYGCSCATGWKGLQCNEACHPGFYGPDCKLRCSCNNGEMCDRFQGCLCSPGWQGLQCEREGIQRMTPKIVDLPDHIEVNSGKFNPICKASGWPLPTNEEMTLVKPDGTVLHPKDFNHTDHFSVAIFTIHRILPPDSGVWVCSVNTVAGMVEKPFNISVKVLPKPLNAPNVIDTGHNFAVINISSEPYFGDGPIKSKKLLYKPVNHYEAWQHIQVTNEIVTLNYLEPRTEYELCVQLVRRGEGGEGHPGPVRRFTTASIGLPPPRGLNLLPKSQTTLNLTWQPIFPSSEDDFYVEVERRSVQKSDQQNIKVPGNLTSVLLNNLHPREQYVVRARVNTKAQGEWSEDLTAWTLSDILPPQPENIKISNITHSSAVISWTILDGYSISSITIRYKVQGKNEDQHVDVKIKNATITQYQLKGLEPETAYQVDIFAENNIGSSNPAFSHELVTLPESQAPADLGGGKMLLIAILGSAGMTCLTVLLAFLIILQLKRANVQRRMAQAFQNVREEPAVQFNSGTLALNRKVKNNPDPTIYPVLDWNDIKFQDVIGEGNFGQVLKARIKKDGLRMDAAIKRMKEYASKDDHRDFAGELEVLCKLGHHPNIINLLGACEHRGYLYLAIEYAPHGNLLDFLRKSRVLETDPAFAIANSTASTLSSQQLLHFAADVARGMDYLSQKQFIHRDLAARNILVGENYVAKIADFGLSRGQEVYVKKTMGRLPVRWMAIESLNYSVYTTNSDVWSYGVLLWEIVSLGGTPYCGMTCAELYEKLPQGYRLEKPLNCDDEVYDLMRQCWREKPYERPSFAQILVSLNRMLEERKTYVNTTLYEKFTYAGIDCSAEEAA

Known results for molecules:
>  <SMILES RECORD>
Nc1nc(Nc2cccnc2)nn1-c1ncccc1C(F)(F)F

>  <RESULT>
> 1000 nM

$$$$
>  <SMILES RECORD>
COc1ccc(Nc2nc(N)n(-c3ccccn3)n2)cn1

>  <RESULT>
500 nM

$$$$
>  <SMILES RECORD>
Nc1nc(Nc2cccnc2)nn1-c1ccc2ccccc2c1

>  <RESULT>
> 1000 nM

$$$$

Provide the reported IC50 of each entry below, same order.
1. Nc1nc(Nc2cnc3ncccc3c2)nn1-c1ccccn1
2. Nc1nc(Nc2cccnc2)nn1-c1nccc2ccccc12
3. Cc1cc(C(F)(F)F)cc(-n2nc(Nc3cccnc3)nc2N)n1

Response:
> 1000 nM
500 nM
> 1000 nM

---

System: human MCF7 tumor cells
Experiment: Proliferation assay (crystal violet)
Type: cell-based
Conditions: 96 h, 4 days incubation, read-out: MCF-7 IC50
Answer each item with its documented IC50.
Give bare numbers, in µM.

>  <SMILES RECORD>
Nc1nc(Nc2cncc(Br)c2)nn1-c1ccccn1

>  <IC50 [µM]>
1.1

$$$$
>  <SMILES RECORD>
Nc1nc(Nc2cnc3ncccc3c2)nn1-c1ccccn1

>  <IC50 [µM]>
1.5

$$$$
>  <SMILES RECORD>
Nc1nc(Nc2cnc3ccccc3c2)nn1-c1ccccn1

>  <IC50 [µM]>
4

$$$$
>  <SMILES RECORD>
Nc1nc(Nc2cccnc2)nn1-c1ccc(C(F)(F)F)cn1

>  <IC50 [µM]>
4

$$$$

Pending compound:
Prompt: API: value(readout= IC50, system= human MCF7 tumor cells, query= Nc1nc(Nc2cccnc2)nn1-c1ncccc1C(F)(F)F )
Response: 6
